METHOD_SUMMARY: chemical genetic growth profiling, strain panel (AID 1159580);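 further: tested at 20 µM; growth read once vehicle control cultures reached saturation at 30 °C; 1 = growth at the plate median or of vehicle wells; lower values mean less growth of the strain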
MEASUREMENT_SETUP: S. cerevisiae deletion strains, growth OD, locus YMR205C, strain PFK2, hits give low values
About 2,000 (36%) of roughly 5,500 compounds were called active. Inconclusive results (about 18%) are left out. The list shows a part of the results.
MEASURED_METRIC: normalized growth
No unit in the answer, only the number.

NCC(=O)CCC(=O)O :: 0.976
CC(=O)N(O)CCCCCNC(=O)CCC(=O)N(O)CCCCCNC(=O)CCC(=O)N(O)CCCCCN :: 1.03
O=C1c2c(O)ccc(O)c2C(=O)c2c(NCCNCCO)ccc(NCCNCCO)c21 :: 0.975
CCCN1C[C@H](CSC)C[C@@H]2c3cccc4[nH]cc(c34)C[C@H]21 :: 1.02

Now look at this entry.
molecule C=C1C2CC[C@@]3(C)[C@H](c4ccoc4)OC(=O)C[C@]13O[C@H]1CC(=O)C(C)(C)[C@H](C(O)C(=O)OC)[C@@]21C (stereo not given in full) , normalized growth observed: 1.03

###

METHOD_SUMMARY: chemical genetic growth profiling, strain panel (AID 1159580);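 further: tested at 20 µM; growth read once vehicle control cultures reached saturation at 30 °C; 1 = growth at the plate median or of vehicle wells; lower values mean less growth of the strain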
MEASUREMENT_SETUP: S. cerevisiae deletion strains, growth OD, locus YPL256C, strain CLN2, hits give low values
Hit rate of the full screen: of about 5,500 compounds, about 2,000 (36%) were called active. About 18% were inconclusive and are not listed. Some of the results follow.
MEASURED_METRIC: normalized growth

Please review the following examples before continuing.
CN1CCN2c3ccccc3Cc3ccccc3C2C1 (stereo not given) :: 0.99 (inactive)
O=C1CCc2ccc(OCCCCN3CCN(c4cccc(Cl)c4Cl)CC3)cc2N1 :: 0.975 (inactive)
O=C1c2c(O)ccc(O)c2C(=O)c2c(NCCNCCO)ccc(NCCNCCO)c21 :: 0.959 (inactive)

molecule Cn1nnnc1SCC1=C(C(=O)O)N2C(=O)C(NC(=O)C(O)c3ccccc3)C2SC1 (stereo not given) , normalized growth observed: 0.987 (inactive)

molecule "CN(C)CCC=C1c2ccccc2CCc2ccccc21" , normalized growth observed: 1.06 (inactive)

###

Quick list: normalized growth per entry.
METHOD_SUMMARY: chemical genetic growth profiling, strain panel (AID 1159580);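 further: tested at 20 µM; growth read once vehicle control cultures reached saturation at 30 °C; 1 = growth at the plate median or of vehicle wells; lower values mean less growth of the strain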
MEASUREMENT_SETUP: S. cerevisiae deletion strains, growth OD, locus YAR019C, strain CDC15, hits give low values
In all, about 5,500 compounds went through this assay and about 2,000 (36%) were called active. Not shown: some 18% with an inconclusive outcome. Some of the results follow.
No unit in the answer, only the number.

Please review the following examples before continuing.
Cc1ccc2c(c1)CCCN2CC(=O)N(c1ccccc1)C1CCCCC1 :: 0.989
O=C(NCc1cccs1)c1csc(Cc2c(Cl)cccc2Cl)n1 :: 0.986
Clc1ccc(-c2csc(Nc3ccccc3)n2)s1 :: 0.933
CN(C(=O)N(C)c1ccc(Cl)cc1C(=O)c1ccccc1Cl)c1ccc(Cl)cc1C(=O)c1ccccc1Cl :: 0.84

compound "O=C(NNC(=O)c1csc(-c2cccs2)n1)c1ccc(C(F)(F)F)cc1" , normalized growth observed: 0.972

compound "O=C1c2ccccc2O[C@@H](c2ccccc2)[C@@H]1NCc1ccccc1" , normalized growth observed: 0.915

compound "CCCc1cnc(N2CCN(CC(=O)N(c3ccccc3)C3CCCCC3)CC2)nc1" , normalized growth observed: 0.995
